biological target: Histone deacetylase 2 (Homo sapiens); experiment: Inhibition of HDAC2 in human MM1.S cells assessed as increase in acetylated histone H3 level at 1 uM incubated for 6 hrs by Western blot analysis; format: cell-based
Activity calls are given as the source filed them. The rule behind the calls is not given here.

[
  {
    "compound": "O=C1CCC(N2C(=O)c3cccc(NCCCCN(Cc4ccc(C(=O)NO)cc4)Cc4cccnc4)c3C2=O)C(=O)N1 (centres undefined)",
    "inhibition": "inactive"
  },
  {
    "compound": "O=C1CCC(N2C(=O)c3cccc(NCCCCCCn4cc(CN(Cc5ccc(C(=O)NO)cc5)Cc5cccnc5)nn4)c3C2=O)C(=O)N1 (centres undefined)",
    "inhibition": "inactive"
  },
  {
    "compound": "O=C1CCC(N2C(=O)c3cccc(NCCOCCOCCn4cc(CN(Cc5ccc(C(=O)NO)cc5)Cc5cccnc5)nn4)c3C2=O)C(=O)N1 (centres undefined)",
    "inhibition": "inactive"
  },
  {
    "compound": "O=C1CCC(N2C(=O)c3cccc(NCCOCCOCCN(Cc4ccc(C(=O)NO)cc4)Cc4cccnc4)c3C2=O)C(=O)N1 (centres undefined)",
    "inhibition": "inactive"
  }
]

* * *

target: Histone deacetylase 11 (Homo sapiens, UniProt Q96DB2)
Sequence (Q96DB2 whole entry): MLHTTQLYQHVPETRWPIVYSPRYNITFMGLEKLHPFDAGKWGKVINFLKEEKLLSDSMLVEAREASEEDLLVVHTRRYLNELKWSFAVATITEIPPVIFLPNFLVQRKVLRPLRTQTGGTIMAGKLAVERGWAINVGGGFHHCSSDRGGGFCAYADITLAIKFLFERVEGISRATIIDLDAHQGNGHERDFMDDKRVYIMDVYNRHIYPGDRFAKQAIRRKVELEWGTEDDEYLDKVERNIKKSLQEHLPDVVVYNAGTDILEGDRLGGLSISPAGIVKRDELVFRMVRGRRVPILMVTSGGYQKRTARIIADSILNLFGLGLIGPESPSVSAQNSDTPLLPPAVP
readout kind: IC50

Q: May I ask what IC50 has been recorded for O=C1CCC(N2C(=O)c3cccc(NCCOCCOCCn4cc(CN(Cc5ccc(C(=O)NO)cc5)Cc5cccnc5)nn4)c3C2=O)C(=O)N1 (stereo unspecified) ?
Result: > 10 µM

* * *

experiment: Stability of compound in human whole blood assessed as half-life at 1 uM measured upto 40 mins by LC-MS/MS analysis; type: ADME, tissue-based
readout kind: half-life at 1 µM (h)

Use these answered entries as a reference point.
[
  {
    "molecule": "O=C1CCC(N2C(=O)c3cccc(NCCOCCN(Cc4ccc(C(=O)NO)cc4)Cc4cccnc4)c3C2=O)C(=O)N1 (configuration not stated)",
    "observed result": 1.36
  },
  {
    "molecule": "O=C1CCC(N2C(=O)c3cccc(NCCOCCOCCN(Cc4ccc(C(=O)NO)cc4)Cc4cccnc4)c3C2=O)C(=O)N1 (configuration not stated)",
    "observed result": 1.06
  },
  {
    "molecule": "O=C1CCC(N2C(=O)c3cccc(NCCOCCn4cc(CCCCN(Cc5ccc(C(=O)NO)cc5)Cc5cccnc5)nn4)c3C2=O)C(=O)N1 (configuration not stated)",
    "observed result": 1.01
  }
]

P: O=C1CCC(N2C(=O)c3cccc(NCCN(Cc4ccc(C(=O)NO)cc4)Cc4cccnc4)c3C2=O)C(=O)N1 (configuration not stated)
Q: O=C1CCC(N2C(=O)c3cccc(NCCCCCCn4cc(CN(Cc5ccc(C(=O)NO)cc5)Cc5cccnc5)nn4)c3C2=O)C(=O)N1 (configuration not stated)
Q: Hi! Which is lower in terms of half-life at 1 µM, the first one P or the second one Q ? Label of pick, please.
Result: Q
(Q: 0.704 h, P: 1.29 h)

I: O=C1CCC(N2C(=O)c3cccc(NCCCn4cc(CN(Cc5ccc(C(=O)NO)cc5)Cc5cccnc5)nn4)c3C2=O)C(=O)N1 (configuration not stated)
II: O=C1CCC(N2C(=O)c3cccc(NCCOCCn4cc(CN(Cc5ccc(C(=O)NO)cc5)Cc5cccnc5)nn4)c3C2=O)C(=O)N1 (configuration not stated)
Q: Hi! Which is lower in terms of half-life at 1 µM, the first one I or the second one II ? Label of pick, please.
Result: I
(I: 0.738 h, II: 1.33 h)

a: O=C1CCC(N2C(=O)c3cccc(NCCOCCOCCn4cc(CCCCN(Cc5ccc(C(=O)NO)cc5)Cc5cccnc5)nn4)c3C2=O)C(=O)N1 (configuration not stated)
b: O=C1CCC(N2C(=O)c3cccc(NCCCCN(Cc4ccc(C(=O)NO)cc4)Cc4cccnc4)c3C2=O)C(=O)N1 (configuration not stated)
Q: Hi! Which is lower in terms of half-life at 1 µM, the first one a or the second one b ? Label of pick, please.
Result: a
(a: 0.864 h, b: 1.45 h)

* * *

assay: Stability of compound in human whole blood assessed as half-life at 1 uM measured upto 40 mins by LC-MS/MS analysis; type: ADME, tissue-based
readout kind: half-life at 1 µM (min)

[
  {
    "molecule": "O=C1CCC(N2C(=O)c3cccc(NCCCn4cc(CCCCN(Cc5ccc(C(=O)NO)cc5)Cc5cccnc5)nn4)c3C2=O)C(=O)N1 (stereo not drawn)",
    "unit abbreviation": "min",
    "observed result": 63.2
  },
  {
    "molecule": "O=C1CCC(N2C(=O)c3cccc(NCCOCCOCCn4cc(CN(Cc5ccc(C(=O)NO)cc5)Cc5cccnc5)nn4)c3C2=O)C(=O)N1 (stereo not drawn)",
    "unit abbreviation": "min",
    "observed result": 37.2
  },
  {
    "molecule": "O=C1CCC(N2C(=O)c3cccc(NCCCCCCn4cc(CCCCN(Cc5ccc(C(=O)NO)cc5)Cc5cccnc5)nn4)c3C2=O)C(=O)N1 (stereo not drawn)",
    "unit abbreviation": "min",
    "observed result": 45.7
  }
]
